Experiment: LNP encapsulation efficiency of RNA (Ribogreen fluorescence assay)
Format: physicochemical
Conditions: Table 3, Experiments 1-13; LNP 50% ionizable lipid, 38% cholesterol, 9% DSPC, 3% PEG2K-DMG; sgRNA:mRNA 1:2
REPORTED_ENDPOINT: % E (encapsulation efficiency) (%)

* CCCCC/C=C\C/C=C\CCCCCCCC(=O)OCC(COC(=O)CCCC(=O)OC(CCCCCCCC)CCCCCCCC)COC(=O)NCCN1CCCCCC1 (stereo not drawn) [Compound 50] | 98
* CCCCC/C=C\C/C=C\CCCCCCCC(=O)OCC(CCCCCCC(=O)OC(CCCCCC)CCCCCC)COC(=O)OCCCN(CC)CC (stereo not drawn) [Compound 18] | 99
* CCCCCCCCC(CCCCCCCC)OC(=O)CCCC(=O)OCC(COC(=O)CCCC(=O)OC(CCCCCCCC)CCCCCCCC)COC(=O)OCCCN(C)C [Compound 31] | 100
* CCCCCCCCC(CCCCCCCC)OC(=O)CCCC(=O)OCC(COC(=O)CCCC(=O)OC(CCCCCCCC)CCCCCCCC)COC(=O)OCCCN1CCCCC1 [Compound 32] | 99
* CCCCCCCCC(CCCCCCCC)OC(=O)CCCC(=O)OCC(COC(=O)CCCC(=O)OC(CCCCCCCC)CCCCCCCC)COC(=O)NCCN1CCCC1 [Compound 29] | 100
* CCCCC/C=C\C/C=C\CCCCCCCC(=O)OCC(CCCCC(=O)OC(CCCCCCCC)CCCCCCCC)COC(=O)OCCCN(CC)CC (stereo not drawn) [Compound 15] | 98

* * *

Assay: LNP average particle size and polydispersity by dynamic light scattering
Type: physicochemical
Settings: LNP with 50% ionizable lipid, 38% cholesterol, 9% DSPC, 3% C13 Ether (LNP #1, Compound 53: 3% PEG2K-DMG instead); sgRNA:mRNA 1:2
REPORTED_ENDPOINT: Number mean (average particle size) (nm)

* CCCCCCCCC(CCCCCCCC)OC(=O)CCCCCCC(=O)OCC(COC(=O)CCCCCCC(=O)OC(CCCCCCCC)CCCCCCCC)COC(=O)OCCCN1CCCC1 | 62
* CCCCCCCCC(CCCCCCCC)OC(=O)CCCCCCC(=O)OCC(CC)(COC(=O)CCCCCCC(=O)OC(CCCCCCCC)CCCCCCCC)COC(=O)OCCCN1CCCC1 | 53
* CCCCCCCCC(CCCCCCCC)OC(=O)CCCC(=O)OCC(COC(=O)CCCC(=O)OC(CCCCCCCC)CCCCCCCC)COC(=O)NCCN(CC)CC | 67
* CCCCCCCCC(CCCCCCCC)OC(=O)CCCCCCC(=O)OCC(COC(=O)CCCCCCC(=O)OC(CCCCCCCC)CCCCCCCC)COC(=O)NCCN(CC)CC | 74
* CCCCCCCCC(CCCCCCCC)OC(=O)CCCC(=O)OCC(COC(=O)CCCC(=O)OC(CCCCCCCC)CCCCCCCC)COC(=O)OCCCN1CCCC1 | 60
* CCCCCCCCC(CCCCCCCC)OC(=O)CCCCCC(=O)OCC(COC(=O)CCCCCC(=O)OC(CCCCCCCC)CCCCCCCC)COC(=O)OCCCN1CCCC1 | 52
* CCCCC/C=C\C/C=C\CCCCCCCC(=O)OCC(COC(=O)CCC(OCCCCCCCC)OCCCCCCCC)COC(=O)OCCCN(CC)CC (stereo not drawn) | 71
* CCCCCCCCC(CCCCCCCC)OC(=O)CCCCCCC(=O)OCC(CC)(COC(=O)CCCCCCC(=O)OC(CCCCCCCC)CCCCCCCC)COC(=O)NCCN(CC)CC | 64
* CCCCCCCCC(CCCCCCCC)OC(=O)CCCCC(=O)OCC(COC(=O)CCCCC(=O)OC(CCCCCCCC)CCCCCCCC)COC(=O)NCCN(CC)CC | 63

* * *

Experiment: LNP average particle size and polydispersity by dynamic light scattering
Assay type: physicochemical
Conditions: Table 3, Experiments 1-13; LNP 50% ionizable lipid, 38% cholesterol, 9% DSPC, 3% PEG2K-DMG; sgRNA:mRNA 1:2
REPORTED_ENDPOINT: Z-avg (nm)

- CCCCC/C=C\C/C=C\CCCCCCCC(=O)OCC(CCCCCCCCC(=O)OC(CCCCCCCC)CCCCCCCC)COC(=O)NCCN(CC)CC (stereo not drawn): 90
- CCCCCCCCOC(CCC(=O)OCC(COC(=O)CC(CCCC)CCCCCC)COC(=O)OCCCN(CC)CC)OCCCCCCCC (stereo not drawn): 85
- CCCCCCCCC(CCCCCCCC)OC(=O)CCCC(=O)OCC(COC(=O)CCCC(=O)OC(CCCCCCCC)CCCCCCCC)COC(=O)OCCCN1CCCC1: 71

* * *

Test system: rat TTR
Experiment: Serum TTR level after LNP delivery (Rat Prealbumin (Transthyretin) ELISA)
Assay type: in vivo, rat (Sprague-Dawley)
Details: Experiment 5, 0.1 mpk, LNP with PEG2K-DMG
REPORTED_ENDPOINT: % TSS (serum TTR relative to vehicle) (%)
Expressed in %, but write only the number.

Request: Please report % TSS (serum TTR relative to vehicle) for the following compound: CCCCC/C=C\C/C=C\CCCCCCCC(=O)OCC(CCCCCCCCC(=O)OC(CCCCCCCC)CCCCCCCCC)COC(=O)CCC(CCCCCCCC)OC(=O)NCCN(C)CC (centres unmarked)
Result: 95

Request: Please report % TSS (serum TTR relative to vehicle) for the following compound: CCCCC/C=C\C/C=C\CCCCCCCC(=O)OCC(CCCCCCCCC(=O)OC(CCCCCCCC)CCCCCCCCC)COC(=O)CCC(CCCCCCCC)OC(=O)NCCN1CCCC1 (centres unmarked)
Result: 70

Request: Please report % TSS (serum TTR relative to vehicle) for the following compound: CCCCC/C=C\C/C=C\CCCCCCCC(=O)OCC(CCCCCCCCC(=O)OC(CCCCCCCC)CCCCCCCCC)COC(=O)CCC(CCCC)OC(=O)NCCN(C)CC (centres unmarked)
Result: 35

Request: Please report % TSS (serum TTR relative to vehicle) for the following compound: CCCCC/C=C\C/C=C\CCCCCCCC(=O)OCC(CCCCCCCCC(=O)OC(CCCCCCCC)CCCCCCCCC)COC(=O)CCC(CCCC)OC(=O)NCCN1CCCC1 (centres unmarked)
Result: 21

Request: Please report % TSS (serum TTR relative to vehicle) for the following compound: CCCCC/C=C\C/C=C\CCCCCCCC(=O)OCC(COC(=O)CCC(OCCCCCCCC)OCCCCCCCC)COC(=O)OCCCN(CC)CC (centres unmarked)
Result: 44

* * *

Form field: Mean % editing (one value per entry).
Tested on: rat TTR gene
Experiment: In vivo editing of TTR in rat liver after LNP delivery (NGS, % editing)
Design: species or system rat (Sprague-Dawley)
Conditions: Experiment 7, 0.1 mpk, LNP with PEG2K-DMG
Expressed in %, but write only the number.

Here are 4 compounds together with their reported answers.
* CCCCCCCCOC(CCC(=O)OCC(COC(=O)OCCCN(CC)CC)COC(=O)C(CCCC)CCCCCC)OCCCCCCCC (centres unmarked) | 56.3
* CCCCC/C=C\C/C=C\CCCCCCCC(=O)OCC(COC(=O)CCC(OCCCCCCCC)OCCCCCCCC)COC(=O)OCCCN(CC)CC (centres unmarked) | 31.5
* CCCCCCCCOC(CCC(=O)OCC(COC(=O)CC(CCCC)CCCCCC)COC(=O)OCCCN(CC)CC)OCCCCCCCC (centres unmarked) | 57.5
* CCCCCCCCOC(CCC(=O)OCC(COC(=O)NCCN(CC)CC)COC(=O)C(CCCC)CCCCCC)OCCCCCCCC (centres unmarked) | 55.0

Request: Please report Mean % editing for the following compound: CCCCCCCCCCCC(=O)OCC(COC(=O)CCC(OCCCCCCCC)OCCCCCCCC)COC(=O)OCCCN(CC)CC (centres unmarked)
Result: 5.8

Request: Please report Mean % editing for the following compound: CCCCCCCCOC(CCC(=O)OCC(COC(=O)CCCCCCCC)COC(=O)NCCN(CC)CC)OCCCCCCCC (centres unmarked)
Result: 0.2

Request: Please report Mean % editing for the following compound: CCCCCCCCOC(CCC(=O)OCC(COC(=O)CC(CCCC)CCCCCC)COC(=O)NCCN(CC)CC)OCCCCCCCC (centres unmarked)
Result: 59.8

Request: Please report Mean % editing for the following compound: CCCCCCCCOC(CCC(=O)OCC(COC(=O)CCCCCCCC)COC(=O)OCCCN(CC)CC)OCCCCCCCC (centres unmarked)
Result: 1.8

* * *

Assay: LNP average particle size and polydispersity by dynamic light scattering
Assay type: physicochemical
Settings: Table 3, Experiment 14; LNP with 3% C13 Ether; sgRNA:mRNA 1:2
REPORTED_ENDPOINT: PDI

Here are 2 molecules together with their reported answers.
• CCCCCCCCC(CCCCCCCC)OC(=O)CCCC(=O)OCC(COC(=O)CCCC(=O)OC(CCCCCCCC)CCCCCCCC)OC(=O)NCCN(CC)CC = 0.019
• CCCCCCCCC(CCCCCCCC)OC(=O)CCCC(=O)OCC(COC(=O)CCCC(=O)OC(CCCCCCCC)CCCCCCCC)COC(=O)NCCN(CC)CC = 0.02

(1) CCCCCCCCC(CCCCCCCC)OC(=O)CCCC(=O)OCC(COC(=O)CCCC(=O)OC(CCCCCCCC)CCCCCCCC)COC(=O)OCCCN(CC)CC
(2) CCCCCCCCC(CCCCCCCC)OC(=O)CCCC(=O)OCC(COC(=O)CCCC(=O)OC(CCCCCCCC)CCCCCCCC)COC(=O)CCCN(C)C
(3) CCCCCCCCC(CCCCCCCC)C(=O)OCC(COC(=O)NCCN(CC)CC)COC(=O)C(CCCCCCCC)CCCCCCCC
Request: Sort (3 molecules) by PDI: min first. // respond by listing labels in the order requested
Result: 1, 2, 3
